Value source: PubChem BioAssay AID248

- System: L1210 leukemia ip in BDF1 mice, survival T/C
- assay_text: NCI In Vivo Anticancer Drug Screen. Data for tumor model L1210 Leukemia (intraperitoneal) in B6D2F1 (BDF1) mice
- applied_conditions: endpoint: mean survival time; dose: 200.0 mg/kg/injection; schedule: Q04DX003 (ip); vehicle: saline with Tween-80; higher = longer survival
- Method: The antitumor activity of compounds was measured in mice bearing transplantable tumors. Survival or tumor size were measured and the results are expressed as the measurement made in the treated group (T) divided by the measurement made in the vehicle treated control group (C). The tumor model used in this assay is L1210 Leukemia (intraperitoneal) in B6D2F1 (BDF1) mice
Toxic doses and inconclusive results are not listed.
Listed here are compounds together with their documented T/C.

1) CCCC(C)(C)SSC(C)(C)CCC :: 110 % of control
2) CC(=O)NC(CCSCc1c2ccccc2c(C)c2ccccc12)C(=O)O (stereo not drawn) :: 95 % of control
3) CC1=CC(C)(C2(O)c3ccccc3-c3ccccc32)C=C(C)C1 :: 95 % of control
4) CCC(C)C1(C)OC1C(=O)OC (stereo not drawn) :: 101 % of control

Prompt: State the recorded T/C for this entry: `CC(=O)Nc1ccccc1-c1ccc([N+](=O)[O-])cc1`
Completion: 101 % of control

Prompt: State the recorded T/C for this entry: `Cc1cc(C(=O)O)c(C)cc1C(=O)O`
Completion: 93 % of control

Prompt: State the recorded T/C for this entry: O=C(O)CC(NC(=O)OCc1ccccc1)c1ccccc1 (stereo not drawn)
Completion: 92 % of control

Prompt: State the recorded T/C for this entry: `C=CCCCCCCCCC(=O)NN1CCOCC1`
Completion: 92 % of control
